Recorded Release of serotonin, raphe values for a group of compounds are listed next.
Tested on: serotonin release, raphe
Assay: Release of biogenic amines from brain tissue: serotonin, raphe
Assay type: in vivo, Wistar rats
Conditions: 1.00 mg/kg s.c.

{"Compound": "CCCNC(CCC)Cc1cccc2ccccc12 (stereo not drawn) [Compound No. 5, 1-(1-Naphthyl)-2-propylaminopentane]", "Release of serotonin, raphe": "0.571 ± 0.01 nmol/g tissue, for 20 min"}
{"Compound": "CCCC(Cc1ccc2ccccc2c1)NCC (stereo not drawn) [Compound No. 6]", "Release of serotonin, raphe": "0.708 ± 0.07 nmol/g tissue, for 20 min"}
{"Compound": "CCCNC(CCC)Cc1ccccc1 (racemic) [PPAP, 1-phenyl-2-propylaminopentane, reference compound]", "Release of serotonin, raphe": "0.741 ± 0.01 nmol/g tissue, for 20 min"}
{"Compound": "CCCNC(CC)Cc1ccc2ccccc2c1 (stereo not drawn) [Compound No. 10]", "Release of serotonin, raphe": "0.603 ± 0.10 nmol/g tissue, for 20 min"}
{"Compound": "CCCNC(CCC)Cc1cccc2c1OCO2.Cl (stereo not drawn) [Compound No. 28]", "Release of serotonin, raphe": "1.017 ± 0.06 nmol/g tissue, for 20 min"}
{"Compound": "CCCNC(CCC)Cc1c[nH]c2ccccc12.Cl (stereo not drawn) [Compound No. 20]", "Release of serotonin, raphe": "0.355 ± 0.05 nmol/g tissue, for 20 min"}

====

Target: α1 receptor
Test: Affinity to α1 receptor
Details: read-out: Affinity to α1 receptor (MIC50; mole concentration for 50% inhibition of binding); 0.25 nM ^3H-prazocin; 90 min
Assay readout: IC50 (µM)

{"Molecule": "CC(C)C[C@H]1C(=O)N2CCC[C@H]2[C@]2(O)O[C@](NC(=O)[C@@H]3C=C4c5cccc6[nH]c(Br)c(c56)C[C@H]4N(C)C3)(C(C)C)C(=O)N12 [Bromocriptine, reference compound]", "Relation sign": "=", "Reading": 0.01}
{"Molecule": "CCCNC(CCC)Cc1cccc2[nH]ccc12.Cl (centres unmarked) [Compound No. 21, Hydrochloride]", "Relation sign": ">", "Reading": 10}
{"Molecule": "C#CCN(C)[C@H](C)Cc1ccccc1 [Selegiline, reference compound]", "Relation sign": ">", "Reading": 10}
{"Molecule": "CCCNC(CCC)Cc1cc2ccccc2o1.Cl (centres unmarked) [Compound No. 25, Hydrochloride]", "Relation sign": ">", "Reading": 10}
{"Molecule": "CCCNC(CCC)Cc1c[nH]c2ccccc12.Cl (centres unmarked) [Compound No. 20, Hydrochloride]", "Relation sign": "=", "Reading": 80}

====

Recorded Release of noradrenaline, locus coeruleus values for a group of compounds are listed next.
Tested on: noradrenaline release, locus coeruleus
Test: Release of biogenic amines from brain tissue: noradrenaline, locus coeruleus
Type: in vivo, Wistar rats
Details: 0.01 mg/kg s.c.
Assay readout: Release of noradrenaline, locus coeruleus

{"Compound": "CCCNC(CCC)Cc1cc2ccccc2s1.Cl (centres unmarked) [compound 38]", "Reading": "3.6 ± 0.05 nmol/g tissue, for 20 min"}
{"Compound": "CCCNC(CCC)Cc1cccc2[nH]ccc12.Cl (centres unmarked) [Compound No. 21]", "Reading": "4.6 ± 0.40 nmol/g tissue, for 20 min"}
{"Compound": "CCCNC(CCC)Cc1csc2ccccc12.Cl (centres unmarked) [compound 39]", "Reading": "4.1 ± 0.15 nmol/g tissue, for 20 min"}
{"Compound": "CCCNC(CCC)Cc1cc2ccccc2o1.Cl (centres unmarked) [Compound No. 25]", "Reading": "4.3 ± 0.20 nmol/g tissue, for 20 min"}
{"Compound": "CCCNC(CCC)Cc1ccc2cc[nH]c2c1.Cl (centres unmarked) [compound 22]", "Reading": "4.8 ± 0.05 nmol/g tissue, for 20 min"}

====

Assay: Toxicity screening using primary cultured hepatocyte (LDH release)
Assay type: cell-based, rat
Settings: rat, primary hepatocytes; 10 μM, 24 hr; control 0.5% saline or 0.5% DMSO; read-out: Percent control of LDH release
Where a name gives a salt, the structure may show the parent alone.

{"Compound": "CCCC(Cc1ccc2c(c1)OCO2)Nc1ccc(C)cc1.Cl (centres unmarked) [Compound No. 33, Hydrochloride]", "Measure unit": "%", "activity at 24 h, 10 µM": 94}
{"Compound": "CCCNC(CCC)Cc1ccccc1 (racemic) [PPAP, 1-phenyl-2-propylaminopentane, reference compound]", "Measure unit": "%", "activity at 24 h, 10 µM": 127}
{"Compound": "CCCNC(CCC)Cc1c[nH]c2ccccc12.Cl (centres unmarked) [Compound No. 20, Hydrochloride]", "Measure unit": "%", "activity at 24 h, 10 µM": 92.7}
{"Compound": "CCCNC(CCC)Cc1ccc2c(c1)CCC2.Cl (centres unmarked) [Compound No. 37, Hydrochloride]", "Measure unit": "%", "activity at 24 h, 10 µM": 83.8}
{"Compound": "CCCNC(CCC)Cc1ccc2c(c1)CCO2 (centres unmarked) [Compound No. 36, Hydrochloride]", "Measure unit": "%", "activity at 24 h, 10 µM": 101}
{"Compound": "CCCNC(CCC)Cc1cccc2ccccc12 (centres unmarked) [Compound No. 5, 1-(1-Naphthyl)-2-propylaminopentane]", "Measure unit": "%", "activity at 24 h, 10 µM": 111}
{"Compound": "CCCNC(CCC)Cc1cccc2c1OCO2.Cl (centres unmarked) [Compound No. 28, Hydrochloride]", "Measure unit": "%", "activity at 24 h, 10 µM": 93}
{"Compound": "CCCCNC(CCC)Cc1ccc2c(c1)OCO2.Cl (centres unmarked) [Compound No. 29, Hydrochloride]", "Measure unit": "%", "activity at 24 h, 10 µM": 103}

====

Recorded Release of dopamine, substantia nigra values for a group of compounds are listed next.
Tested on: dopamine release, substantia nigra
Test: Release of biogenic amines from brain tissue: dopamine, substantia nigra
Type: in vivo, Wistar rats
Conditions: 1.00 mg/kg s.c.

{"Compound": "CCCC(Cc1ccc2ccccc2c1)NCC (stereo not drawn)", "Release of dopamine, substantia nigra": "6.7 ± 0.26 nmol/g tissue, for 20 min"}
{"Compound": "CCCNC(CCC)Cc1cccc2ccccc12 (stereo not drawn)", "Release of dopamine, substantia nigra": "4.4 ± 0.16 nmol/g tissue, for 20 min"}
{"Compound": "CCCNC(CCC)Cc1cccc2c1OCO2.Cl (stereo not drawn)", "Release of dopamine, substantia nigra": "5.4 ± 0.27 nmol/g tissue, for 20 min"}
{"Compound": "CCCNC(CC)Cc1ccc2ccccc2c1 (stereo not drawn)", "Release of dopamine, substantia nigra": "6.2 ± 0.31 nmol/g tissue, for 20 min"}
{"Compound": "CCCNC(CCC)Cc1ccccc1 (racemic) [PPAP, 1-phenyl-2-propylaminopentane, reference compound]", "Release of dopamine, substantia nigra": "4.0 ± 0.21 nmol/g tissue, for 20 min"}
{"Compound": "CCCNC(CCC)Cc1c[nH]c2ccccc12.Cl (stereo not drawn)", "Release of dopamine, substantia nigra": "6.7 ± 0.19 nmol/g tissue, for 20 min"}

====

Assay: Toxicity screening using primary cultured hepatocyte (LDH release)
Format: cell-based, rat
Details: rat, primary hepatocytes; 100 μM, 24 hr; control 0.5% saline or 0.5% DMSO; read-out: Percent control of LDH release
Description: The hepatocytes was prepared from rat liver by collagenase perfusion method and suspension containing 5×10^5 cells/ml were prepared. After cultivation for 24 hr, the suspension was exchanged to the William's Medium E (GIBCO BRL) containing 10 or 100 μM of the compounds of this invention. After cultivation for 24 hr, the activity of lactate dehydrogenase (LDH) released in the medium was measured.
Structures can show the parent of a compound that is named as a salt.
Recorded activity at 24 h, 100 µM values for a group of compounds are listed next.

{"Compound": "CCCNC(CCC)Cc1cc2ccccc2[nH]1 (stereo not shown) [Compound No. 19, Hydrochloride]", "activity at 24 h, 100 µM [%]": 180}
{"Compound": "CCCNC(CCC)Cc1ccc2c(c1)CCO2 (stereo not shown) [Compound No. 36, Hydrochloride]", "activity at 24 h, 100 µM [%]": 111}
{"Compound": "CCCNC(CCC)Cc1ccc2c(c1)OCO2.Cl (stereo not shown) [Compound No. 27, Hydrochloride]", "activity at 24 h, 100 µM [%]": 114}
{"Compound": "CCCNC(CCC)Cc1ccc2c(c1)OCCO2 (stereo not shown) [Compound No. 35, Hydrochloride]", "activity at 24 h, 100 µM [%]": 147}
{"Compound": "CCCC(Cc1ccc2c(c1)OCO2)NC(C)CC (stereo not shown) [Compound No. 30]", "activity at 24 h, 100 µM [%]": 138}
{"Compound": "CCCC(Cc1ccc2c(c1)OCO2)NC(CC)CC (stereo not shown) [Compound No. 31]", "activity at 24 h, 100 µM [%]": 153}
{"Compound": "CCCNC(CCC)Cc1ccccc1 (racemic) [PPAP, 1-phenyl-2-propylaminopentane, reference compound]", "activity at 24 h, 100 µM [%]": 152}
{"Compound": "CCCC(Cc1ccc2ccccc2c1)NCC(C)(C)C (stereo not shown) [Compound No. 14]", "activity at 24 h, 100 µM [%]": 131}
{"Compound": "CCCNC(CCC)Cc1cccc2[nH]ccc12.Cl (stereo not shown) [Compound No. 21, Hydrochloride]", "activity at 24 h, 100 µM [%]": 130}
{"Compound": "CCCCNC(CCC)Cc1ccc2c(c1)OCO2.Cl (stereo not shown) [Compound No. 29, Hydrochloride]", "activity at 24 h, 100 µM [%]": 101}
{"Compound": "CCCNC(CCC)Cc1ccc2c(c1)CCC2.Cl (stereo not shown) [Compound No. 37, Hydrochloride]", "activity at 24 h, 100 µM [%]": 193}
{"Compound": "CCCC(Cc1ccc2c(c1)OCO2)Nc1ccc(C)cc1.Cl (stereo not shown) [Compound No. 33, Hydrochloride]", "activity at 24 h, 100 µM [%]": 152}
{"Compound": "CCCNC(CCC)Cc1cccc2c1OCO2.Cl (stereo not shown) [Compound No. 28, Hydrochloride]", "activity at 24 h, 100 µM [%]": 148}
{"Compound": "CCCNC(CCC)Cc1cccc2ccccc12 (stereo not shown) [Compound No. 5, 1-(1-Naphthyl)-2-propylaminopentane]", "activity at 24 h, 100 µM [%]": 195}
{"Compound": "CCCNC(CCC)Cc1c[nH]c2ccccc12.Cl (stereo not shown) [Compound No. 20, Hydrochloride]", "activity at 24 h, 100 µM [%]": 185}
{"Compound": "CCCNC(CCC)Cc1cc2ccccc2o1.Cl (stereo not shown) [Compound No. 25, Hydrochloride]", "activity at 24 h, 100 µM [%]": 112}
